Assay: Tmax in male Sprague-Dawley rat at 60 mg/kg, po measured after 24 hrs by LC-MS/MS analysis
Assay type: ADME, organism-based
Test Conditions: in vivo

# Smiles Representation, Tmax
data = [
    ("CCn1c(-c2cc(N3CCN(C)CC3)cnc2[C@H](C)OC)c2c3cc(ccc31)-c1csc(n1)C[C@H](NC(=O)[C@H]1C[C@@H]1C)C(=O)N1CCC[C@H](N1)C(=O)OCC(C)(C)C2", "4 h"),
]

###

Assay: Half-life in male cynomolgus monkey at 1 mg/kg, iv measured after 24 hrs by LC-MS/MS analysis
Format: ADME, organism-based, Macaca fascicularis
Test Conditions: in vivo
Parameter Measured: half-life (h)

# Smiles Representation, Assay Value
measured = [
    ("CCn1c(-c2cc(N3CCN(C)CC3)cnc2[C@H](C)OC)c2c3cc(ccc31)-c1csc(n1)C[C@H](NC(=O)[C@H]1C[C@@H]1C)C(=O)N1CCC[C@H](N1)C(=O)OCC(C)(C)C2", 6.2),
]

###

Assay: Inhibition of ERK1/2 phosphorylation in human CAPAN-1 cells harboring KRAS G12V mutant incubated for 4 hrs by AlphaLISA assay
Assay type: cell-based
Test Conditions: CAPAN-1, 4 h
pEC50: −log10 of the molar value.

# Smiles Representation, pEC50
data = [
    ("CCn1c(-c2cc(N3CCN(C4CC4)CC3)cnc2[C@H](C)OC)c2c3cc(ccc31)-c1csc(n1)C[C@H](NC(=O)[C@H]1[C@@H]3COC[C@@H]31)C(=O)N1CCC[C@H](N1)C(=O)OCC(C)(C)C2", 9.30),
    ("CCn1c(-c2cc(N3CCN(C)CC3)cnc2[C@H](C)OC)c2c3cc(ccc31)-c1csc(n1)C[C@H](NC(=O)[C@H]1C[C@@H]1C)C(=O)N1CCC[C@H](N1)C(=O)OCC(C)(C)C2", 9.52),
    ("CCn1c(-c2cccnc2[C@H](C)OC)c2c3cc(ccc31)-c1csc(n1)C[C@H](NC(=O)C1CC1)C(=O)N1CCC[C@H](N1)C(=O)OCC(C)(C)C2", 6.83),
]

###

Study Target: Peptidyl-prolyl cis-trans isomerase A (Homo sapiens, UniProt P62937)
Sequence (P62937 whole entry): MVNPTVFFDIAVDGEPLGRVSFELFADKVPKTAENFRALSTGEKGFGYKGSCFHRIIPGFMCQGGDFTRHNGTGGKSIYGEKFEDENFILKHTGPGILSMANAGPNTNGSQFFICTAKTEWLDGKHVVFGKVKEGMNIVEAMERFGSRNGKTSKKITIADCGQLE
pKd: −log10 of the molar value.

# Smiles Representation, pKd
records = [
    ("CCn1c(-c2cc(N3CC4CC(C3)N4C)cnc2[C@H](C)OC)c2c3cc(ccc31)-c1csc(n1)C[C@H](NC(=O)[C@H]1C[C@@H]1C)C(=O)N1CCC[C@H](N1)C(=O)OCC(C)(C)C2", 7.64),
    ("CCn1c(-c2cccnc2[C@H](C)OC)c2c3cc(ccc31)-c1csc(n1)C[C@H](NC(=O)[C@H]1[C@@H]3COC[C@@H]31)C(=O)N1CCC[C@H](N1)C(=O)OCC(C)(C)C2", 5.62),
    ("CCn1c(-c2cc(N3CCN(C4CC4)CC3)cnc2[C@H](C)OC)c2c3cc(ccc31)-c1csc(n1)C[C@H](NC(=O)[C@H]1[C@@H]3COC[C@@H]31)C(=O)N1CCC[C@H](N1)C(=O)OCC(C)(C)C2", 6.67),
    ("CCn1c(-c2cccnc2[C@H](C)OC)c2c3cc(ccc31)-c1csc(n1)C[C@H](NC(=O)[C@H](C(C)C)N(C)C(=O)OC)C(=O)N1CCC[C@H](N1)C(=O)OCC(C)(C)C2", 6.74),
    ("CCn1c(-c2cccnc2[C@H](C)OC)c2c3cc(ccc31)-c1csc(n1)C[C@H](NC(=O)[C@H](C(C)C)N(C)C(=O)N1CCC1)C(=O)N1CCC[C@H](N1)C(=O)OCC(C)(C)C2", 6.53),
]

###

Assay: Volume of distribution at steady state in male Sprague-Dawley rat at 1 mg/kg, iv measured after 24 hrs by LC-MS/MS analysis
Type: ADME, organism-based
Test Conditions: in vivo, read-out: Vdss

# Smiles Representation, Vd, L/kg
measured = [
    ("CCn1c(-c2cc(N3CCN(C)CC3)cnc2[C@H](C)OC)c2c3cc(ccc31)-c1csc(n1)C[C@H](NC(=O)[C@H]1C[C@@H]1C)C(=O)N1CCC[C@H](N1)C(=O)OCC(C)(C)C2", 1.9),
]

###

Assay: Inhibition of 6His-tagged wildtype KRAS (1 to 169 residues)/GST-tagged GMPPNP-bound BRAF RBD (155 to 229 reisudes)/Cyclophilin A (unknown origin) tri-complex protein-protein interaction incubated for 3 hrs by TR-FERT based disruption assay
Design: species or system Homo sapiens
pIC50: −log10 of the molar value.

# Smiles Representation, pIC50
records = [
    ("CCn1c(-c2cccnc2[C@H](C)OC)c2c3cc(ccc31)-c1csc(n1)C[C@H](NC(=O)[C@H]1CCO1)C(=O)N1CCC[C@H](N1)C(=O)OCC(C)(C)C2", 6.20),
    ("CCn1c(-c2cccnc2[C@H](C)OC)c2c3cc(ccc31)-c1csc(n1)C[C@H](NC(=O)C1CC1)C(=O)N1CCC[C@H](N1)C(=O)OCC(C)(C)C2", 6.21),
    ("CCn1c(-c2cccnc2[C@H](C)OC)c2c3cc(ccc31)-c1cccc(c1)C[C@H](NC(=O)[C@H](C(C)C)N(C)C(=O)[C@H]1CCN(C(C)=O)C1)C(=O)N1CCC[C@H](N1)C(=O)OCC(C)(C)C2", 5.29),
    ("CCn1c(-c2cccnc2[C@H](C)OC)c2c3cc(ccc31)-c1csc(n1)C[C@H](NC(=O)[C@H]1[C@@H]3COC[C@@H]31)C(=O)N1CCC[C@H](N1)C(=O)OCC(C)(C)C2", 6.86),
    ("CCn1c(-c2cccnc2[C@H](C)OC)c2c3cc(ccc31)-c1csc(n1)C[C@H](NC(=O)[C@H](C(C)C)N(C)C(=O)OC)C(=O)N1CCC[C@H](N1)C(=O)OCC(C)(C)C2", 6.13),
    ("CCn1c(-c2cccnc2[C@H](C)OC)c2c3cc(ccc31)-c1csc(n1)C[C@H](NC(=O)[C@H]1C[C@@H]1C)C(=O)N1CCC[C@H](N1)C(=O)OCC(C)(C)C2", 6.46),
    ("CCn1c(-c2cccnc2[C@H](C)OC)c2c3cc(ccc31)-c1csc(n1)C[C@H](NC(=O)[C@H](C(C)C)N(C)C(C)=O)C(=O)N1CCC[C@H](N1)C(=O)OCC(C)(C)C2", 5.31),
    ("CCn1c(-c2cccnc2[C@H](C)OC)c2c3cc(ccc31)-c1csc(n1)C[C@H](NC(=O)[C@H](C(C)C)N(C)C(=O)N(C)C)C(=O)N1CCC[C@H](N1)C(=O)OCC(C)(C)C2", 6.97),
    ("CCn1c(-c2cc(N3CCN(C)CC3)cnc2[C@H](C)OC)c2c3cc(ccc31)-c1csc(n1)C[C@H](NC(=O)[C@H]1[C@@H]3COC[C@@H]31)C(=O)N1CCC[C@H](N1)C(=O)OCC(C)(C)C2", 7.16),
    ("CCn1c(-c2cc(N3CCN(CCOC)CC3)cnc2[C@H](C)OC)c2c3cc(ccc31)-c1csc(n1)C[C@H](NC(=O)[C@H]1C[C@@H]1C)C(=O)N1CCC[C@H](N1)C(=O)OCC(C)(C)C2", 6.82),
    ("CCn1c(-c2cccnc2[C@H](C)OC)c2c3cc(ccc31)-c1csc(n1)C[C@H](NC(=O)[C@H](C(C)C)N(C)C(=O)N1CC(OC)C1)C(=O)N1CCC[C@H](N1)C(=O)OCC(C)(C)C2", 6.70),
]

###

Assay: Half-life in male Sprague-Dawley rat at 1 mg/kg, iv measured after 24 hrs by LC-MS/MS analysis
Assay type: ADME, organism-based
Test Conditions: in vivo
Parameter Measured: half-life

# Smiles Representation, Assay Value
records = [
    ("CCn1c(-c2cc(N3CCN(C)CC3)cnc2[C@H](C)OC)c2c3cc(ccc31)-c1csc(n1)C[C@H](NC(=O)[C@H]1C[C@@H]1C)C(=O)N1CCC[C@H](N1)C(=O)OCC(C)(C)C2", "1.7 h"),
]

###

Assay: Metabolic stability in mouse liver microsomes assessed as half-life at 2 uM measured upto 60 mins in presence of NADPH by LC-MS/MS analysis
Type: ADME, Microsome
Binning rule for recorded half-life at 2 µM: bin A: < 10 min; bin B: ≥ 10 min and < 60 min; bin C: ≥ 60 min

# Smiles Representation, Class
records = [
    ("CCn1c(-c2cccnc2[C@H](C)OC)c2c3cc(ccc31)-c1csc(n1)C[C@H](NC(=O)[C@H](C(C)C)N(C)C(=O)N(C)C)C(=O)N1CCC[C@H](N1)C(=O)OCC(C)(C)C2", "bin A"),
    ("CCn1c(-c2cc(N3CC4CC(C3)N4C)cnc2[C@H](C)OC)c2c3cc(ccc31)-c1csc(n1)C[C@H](NC(=O)[C@H]1C[C@@H]1C)C(=O)N1CCC[C@H](N1)C(=O)OCC(C)(C)C2", "bin C"),
    ("CCn1c(-c2cc(N3CCN(CCOC)CC3)cnc2[C@H](C)OC)c2c3cc(ccc31)-c1csc(n1)C[C@H](NC(=O)[C@H]1C[C@@H]1C)C(=O)N1CCC[C@H](N1)C(=O)OCC(C)(C)C2", "bin C"),
    ("CCn1c(-c2cccnc2[C@H](C)OC)c2c3cc(ccc31)-c1csc(n1)C[C@H](NC(=O)[C@H]1C[C@@H]1C)C(=O)N1CCC[C@H](N1)C(=O)OCC(C)(C)C2", "bin B"),
    ("CCn1c(-c2cc(N3CCN(C)CC3)cnc2[C@H](C)OC)c2c3cc(ccc31)-c1csc(n1)C[C@H](NC(=O)[C@H]1C[C@@H]1C)C(=O)N1CCC[C@H](N1)C(=O)OCC(C)(C)C2", "bin C"),
    ("CCn1c(-c2cccnc2[C@H](C)OC)c2c3cc(ccc31)-c1csc(n1)C[C@H](NC(=O)[C@H](C(C)C)N(C)C(=O)N1CCC1)C(=O)N1CCC[C@H](N1)C(=O)OCC(C)(C)C2", "bin A"),
    ("CCn1c(-c2cc(N3CCN(C4COC4)CC3)cnc2[C@H](C)OC)c2c3cc(ccc31)-c1csc(n1)C[C@H](NC(=O)[C@H]1C[C@@H]1C)C(=O)N1CCC[C@H](N1)C(=O)OCC(C)(C)C2", "bin C"),
    ("CCn1c(-c2cccnc2[C@H](C)OC)c2c3cc(ccc31)-c1csc(n1)C[C@H](NC(=O)C1CC1)C(=O)N1CCC[C@H](N1)C(=O)OCC(C)(C)C2", "bin C"),
    ("CCn1c(-c2cccnc2[C@H](C)OC)c2c3cc(ccc31)-c1csc(n1)C[C@H](NC(=O)[C@H]1[C@@H]3COC[C@@H]31)C(=O)N1CCC[C@H](N1)C(=O)OCC(C)(C)C2", "bin B"),
    ("CCn1c(-c2cccnc2[C@H](C)OC)c2c3cc(ccc31)-c1csc(n1)C[C@H](NC(=O)[C@H](C(C)C)N(C)C(=O)N1CC(OC)C1)C(=O)N1CCC[C@H](N1)C(=O)OCC(C)(C)C2", "bin B"),
    ("CCn1c(-c2cc(N3CCN(C)CC3)cnc2[C@H](C)OC)c2c3cc(ccc31)-c1csc(n1)C[C@H](NC(=O)[C@H]1CCO1)C(=O)N1CCC[C@H](N1)C(=O)OCC(C)(C)C2", "bin C"),
    ("CCn1c(-c2cc(N3CCN(C)CC3)cnc2[C@H](C)OC)c2c3cc(ccc31)-c1csc(n1)C[C@H](NC(=O)[C@H]1[C@@H]3COC[C@@H]31)C(=O)N1CCC[C@H](N1)C(=O)OCC(C)(C)C2", "bin C"),
    ("CCn1c(-c2cccnc2[C@H](C)OC)c2c3cc(ccc31)-c1csc(n1)C[C@H](NC(=O)[C@H]1CCO1)C(=O)N1CCC[C@H](N1)C(=O)OCC(C)(C)C2", "bin B"),
    ("CCn1c(-c2cccnc2[C@H](C)OC)c2c3cc(ccc31)-c1csc(n1)C[C@H](NC(=O)[C@H](C(C)C)N(C)C(C)=O)C(=O)N1CCC[C@H](N1)C(=O)OCC(C)(C)C2", "bin A"),
    ("CCn1c(-c2cccnc2[C@H](C)OC)c2c3cc(ccc31)-c1csc(n1)C[C@H](NC(=O)[C@H](C(C)C)N(C)C(=O)OC)C(=O)N1CCC[C@H](N1)C(=O)OCC(C)(C)C2", "bin B"),
]
